Entry source: paper PMC3748103

Biological target: iPLA2β (Group VIA Ca^2+-independent phospholipase A2) (Rattus norvegicus, UniProt P97570)
Construct: iPLA2β overexpressed in INS-1 insulinoma cells (OE), cytosol
Sequence (P97570 1-807): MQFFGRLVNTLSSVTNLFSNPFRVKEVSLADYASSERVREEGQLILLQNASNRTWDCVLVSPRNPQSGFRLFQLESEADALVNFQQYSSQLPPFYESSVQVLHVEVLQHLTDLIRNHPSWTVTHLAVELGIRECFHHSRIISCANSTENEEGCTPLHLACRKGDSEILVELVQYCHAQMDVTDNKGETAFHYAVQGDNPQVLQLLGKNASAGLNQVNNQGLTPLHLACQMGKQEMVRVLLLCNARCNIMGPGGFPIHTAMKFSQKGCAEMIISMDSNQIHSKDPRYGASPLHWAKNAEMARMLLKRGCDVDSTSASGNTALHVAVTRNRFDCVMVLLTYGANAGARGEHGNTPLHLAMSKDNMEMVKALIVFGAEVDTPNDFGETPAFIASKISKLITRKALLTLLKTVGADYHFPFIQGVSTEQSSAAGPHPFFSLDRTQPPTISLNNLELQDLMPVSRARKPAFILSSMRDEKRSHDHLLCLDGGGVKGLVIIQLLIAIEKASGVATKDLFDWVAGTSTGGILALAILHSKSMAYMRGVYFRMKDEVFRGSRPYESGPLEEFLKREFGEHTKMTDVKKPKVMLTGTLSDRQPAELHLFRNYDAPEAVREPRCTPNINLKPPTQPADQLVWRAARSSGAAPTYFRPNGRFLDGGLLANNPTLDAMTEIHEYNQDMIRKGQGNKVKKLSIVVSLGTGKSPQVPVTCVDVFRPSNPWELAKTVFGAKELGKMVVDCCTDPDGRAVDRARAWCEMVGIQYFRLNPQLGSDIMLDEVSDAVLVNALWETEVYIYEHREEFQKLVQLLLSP
Assay: radioactive PLA2 activity assay ([…]-PAPC) in cytosol of iPLA2β-overexpressing INS-1 cells
pIC50: −log10 of the molar value.
The entries below are paired with their reported pIC50.

[
  {
    "STRUCTURE": "O=C(CCCCc1ccc2ccccc2c1)C(F)(F)F",
    "SYSTEM_UNDER_TEST": "iPLA2β (Group VIA Ca^2+-independent phospholipase A2) (Rattus norvegicus, UniProt P97570)",
    "pIC50": "~7.30"
  },
  {
    "STRUCTURE": "O=C1O/C(=C/Br)CC[C@@H]1c1cccc2ccccc12",
    "SYSTEM_UNDER_TEST": "iPLA2β (Group VIA Ca^2+-independent phospholipase A2) (Rattus norvegicus, UniProt P97570)",
    "pIC50": "~5.52"
  }
]
